The measured values listed here are drawn from patent US7741493B2.

Items are presented alongside their recorded IC50.
Target: P2X7 (Homo sapiens)
Test: YO-PRO-1 dye uptake assay in U373 cells stably expressing P2X7
Assay type: cell-based
Set-up: The complete open reading frame of human P2X7 was amplified from Incyte clone 148057; expressed in transfected cells
Details: dye uptake through P2X7, U373 cells, 300 μM BzATP, 5 μM YO-PRO-1, test compounds 30 nM to 3 μM; read-out: IC50

Molecule | IC50 [nM]
Fc1ccc(OCC2=N[C@@H](c3cccc(F)c3)[C@@H](c3cccc(F)c3)N2)cc1 | 346
Cc1cccc(CNC2=N[C@@H](c3ccccc3)[C@@H](c3ccccc3)N2)c1 | 187
c1ccc([C@H]2NC(CC3Cc4ccccc4C3)=N[C@H]2c2ccccc2)cc1 [trifluoroacetate] | 240
c1ccc(CSC2=N[C@@H](c3ccccc3)[C@@H](c3ccccc3)N2)cc1 | 214

====

Target: P2X7 (Homo sapiens)
Sequence (Q99572 1-595): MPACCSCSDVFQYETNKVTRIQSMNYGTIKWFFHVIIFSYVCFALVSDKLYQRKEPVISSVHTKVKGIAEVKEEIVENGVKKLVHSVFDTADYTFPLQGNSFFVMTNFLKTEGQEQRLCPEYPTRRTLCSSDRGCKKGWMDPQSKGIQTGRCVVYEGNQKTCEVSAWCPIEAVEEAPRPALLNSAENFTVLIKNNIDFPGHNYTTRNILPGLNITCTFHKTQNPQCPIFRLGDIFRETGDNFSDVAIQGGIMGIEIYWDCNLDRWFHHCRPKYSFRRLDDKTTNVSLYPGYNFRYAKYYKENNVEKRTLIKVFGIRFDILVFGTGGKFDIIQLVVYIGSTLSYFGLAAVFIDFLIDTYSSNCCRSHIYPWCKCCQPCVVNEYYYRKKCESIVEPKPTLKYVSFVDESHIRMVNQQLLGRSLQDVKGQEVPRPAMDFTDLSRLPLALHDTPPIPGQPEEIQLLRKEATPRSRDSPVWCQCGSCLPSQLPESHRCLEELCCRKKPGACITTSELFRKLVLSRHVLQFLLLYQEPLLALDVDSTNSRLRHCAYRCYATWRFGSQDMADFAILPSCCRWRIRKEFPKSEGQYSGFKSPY
Assay: YO-PRO-1 dye uptake assay in U373 cells stably expressing P2X7
Type: cell-based
Design: The complete open reading frame of human P2X7 was amplified from Incyte clone 148057; expressed in transfected cells
Conditions: dye uptake through P2X7, U373 cells, 300 μM BzATP, 5 μM YO-PRO-1, test compounds 30 nM to 3 μM; read-out: IC50
Where a name gives a salt, the structure may show the parent alone.
Rule: IC50 below 80 nM gives fulfilled. Equal to or above 80 nM gives not fulfilled.

Compound | Experimental target | Assigned category
Clc1cccc(CCC2=N[C@H](c3ccccc3)[C@H](c3ccccc3)N2)c1 [trifluoroacetate] | P2X7 (Homo sapiens) | not fulfilled
Fc1cccc(CC2=N[C@H](c3ccccc3)[C@H](c3ccccc3)N2)c1 | P2X7 (Homo sapiens) | not fulfilled
CC(C1=N[C@](C)(c2ccccc2)[C@H](c2ccccc2)N1)c1ccccc1 (relative stereo) [trifluoroacetate] | P2X7 (Homo sapiens) | fulfilled
C[C@@]1(c2cccc(F)c2)N=C(CCc2ccccc2)N[C@@H]1c1cccc(F)c1 (relative stereo) [hydrochloride] | P2X7 (Homo sapiens) | fulfilled

====

Target: P2X7 (Homo sapiens, UniProt Q99572)
Experiment: YO-PRO-1 dye uptake assay in U373 cells stably expressing P2X7
Format: cell-based
Design: The complete open reading frame of human P2X7 was amplified from Incyte clone 148057; expressed in transfected cells
Conditions: dye uptake through P2X7, U373 cells, 300 μM BzATP, 5 μM YO-PRO-1, test compounds 30 nM to 3 μM; read-out: IC50
Structures can show the parent of a compound that is named as a salt.
Categorized via IC50: low-valued (below 200 nM), mid-valued (200 nM to below 600 nM), high-valued (600 nM or more)

Compound | Experimental target | Assigned category
Fc1cccc(OCC2=N[C@@H](c3ccccc3)[C@@H](c3ccccc3)N2)c1 [trifluoroacetate] | P2X7 (Homo sapiens, UniProt Q99572) | mid-valued
Clc1ccccc1CSC1=N[C@@H](c2ccccc2)[C@@H](c2ccccc2)N1 | P2X7 (Homo sapiens, UniProt Q99572) | high-valued
Fc1cccc(COCC2=N[C@@H](c3ccccc3)[C@@H](c3ccccc3)N2)c1 [hydrochloride] | P2X7 (Homo sapiens, UniProt Q99572) | mid-valued
Fc1ccc(CNC2=N[C@@H](c3ccccc3F)[C@@H](c3ccccc3F)N2)cc1F [hydrochloride] | P2X7 (Homo sapiens, UniProt Q99572) | mid-valued
C[C@@H](C1=N[C@@H](c2ccccc2)[C@@H](c2ccccc2)N1)c1ccccc1 [trifluoroacetate] | P2X7 (Homo sapiens, UniProt Q99572) | low-valued
Brc1ccccc1CNC1=N[C@@H](c2ccccc2)[C@@H](c2ccccc2)N1 | P2X7 (Homo sapiens, UniProt Q99572) | mid-valued
Fc1cccc([C@H]2NC(CCc3ccccc3F)=N[C@H]2c2cccc(F)c2)c1 [trifluoroacetate] | P2X7 (Homo sapiens, UniProt Q99572) | mid-valued
O=C(Nc1ccccc1)OC(C1=NC(c2ccccc2)C(c2ccccc2)N1)c1ccccc1 (stereo not drawn) [trifluoroacetate] | P2X7 (Homo sapiens, UniProt Q99572) | high-valued
Cc1ccc([C@H]2NC(NCc3ccc(F)c(F)c3)=N[C@H]2c2ccc(C)cc2)cc1 [hydrochloride] | P2X7 (Homo sapiens, UniProt Q99572) | low-valued
Fc1ccc(CC2=N[C@H](c3ccccc3)[C@H](c3ccccc3)N2)cc1 | P2X7 (Homo sapiens, UniProt Q99572) | low-valued
Cc1cccc(CSC2=N[C@@H](c3ccccc3)[C@@H](c3ccccc3)N2)c1 | P2X7 (Homo sapiens, UniProt Q99572) | high-valued
Fc1cccc(F)c1CC1=N[C@@H](c2ccccc2)[C@@H](c2ccccc2)N1 [trifluoroacetate] | P2X7 (Homo sapiens, UniProt Q99572) | high-valued
